Measured On: full-length MALT1 protein (Strep-MALT1(1-824)-His) (Homo sapiens (Human), UniProt Q9UDY8)
Sequence (Q9UDY8 whole entry): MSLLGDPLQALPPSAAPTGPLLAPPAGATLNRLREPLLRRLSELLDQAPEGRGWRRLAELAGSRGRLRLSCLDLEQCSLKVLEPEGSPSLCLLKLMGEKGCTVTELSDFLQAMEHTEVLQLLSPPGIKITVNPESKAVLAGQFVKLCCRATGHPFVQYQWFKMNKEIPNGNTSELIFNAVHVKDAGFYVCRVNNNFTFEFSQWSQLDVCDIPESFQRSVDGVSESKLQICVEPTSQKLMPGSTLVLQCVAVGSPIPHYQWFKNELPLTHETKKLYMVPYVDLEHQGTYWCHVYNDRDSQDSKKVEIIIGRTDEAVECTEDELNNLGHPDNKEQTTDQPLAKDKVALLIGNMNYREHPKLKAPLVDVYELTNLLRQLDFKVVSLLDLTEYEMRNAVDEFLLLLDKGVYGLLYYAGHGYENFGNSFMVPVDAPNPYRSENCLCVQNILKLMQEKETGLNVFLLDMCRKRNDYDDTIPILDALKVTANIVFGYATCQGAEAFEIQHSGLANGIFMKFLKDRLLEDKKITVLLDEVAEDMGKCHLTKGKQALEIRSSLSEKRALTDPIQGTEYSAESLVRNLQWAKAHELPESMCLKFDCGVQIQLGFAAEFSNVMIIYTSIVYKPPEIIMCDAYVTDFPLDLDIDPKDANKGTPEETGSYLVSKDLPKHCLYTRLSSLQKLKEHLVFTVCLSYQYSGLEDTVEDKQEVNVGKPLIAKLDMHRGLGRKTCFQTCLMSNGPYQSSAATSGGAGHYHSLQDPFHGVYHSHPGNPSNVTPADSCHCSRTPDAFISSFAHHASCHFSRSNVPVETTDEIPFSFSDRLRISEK
pIC50: −log10 of the molar value.
Observed Property: pIC50

A selection of reference data follows.
| Molecule | pIC50 |
| --- | --- |
| Cc1ncc(NC(=O)c2cnn(-c3cccc4c(=O)[nH]ccc34)c2C(F)(F)F)cc1C(F)(F)F | 6.71 |
| Cc1cc(NC(=O)c2cnn(-c3cnc(N)c4ccccc34)c2C(F)(F)F)c(C)nc1-n1nccn1 | 6.38 |
| Cc1cnn(-c2nc(C)c(NC(=O)c3cnn(-c4cnc(N)c5ccccc45)c3C(F)(F)F)cc2Cl)n1 | 7.60 |

(a) COC(C)c1c(C(=O)Nc2cnc(-n3nccn3)c(Cl)c2)cnn1-c1cccc2ncccc12 (centres unmarked)
(b) O=C(Nc1cnc(N2CCCS2(=O)=O)c(Cl)c1)c1cnn(-c2cccc3ccncc23)c1C(F)(F)F
(c) Cc1nc(-c2ccn(C)n2)c(Cl)cc1NC(=O)c1cnn(-c2cnc(N)c3ccccc23)c1C(F)(F)F
(d) O=C(Nc1ccc(-n2nccn2)nc1)c1cnn(-c2cncc3ccccc23)c1C(F)(F)F
(e) COC(=O)c1ncc(NC(=O)c2ncc(NC(=O)c3cnn(-c4cncc5ccccc45)c3C(F)(F)F)cc2Cl)cc1Cl
Sort the molecules on pIC50; start with the lowest figure. In plain terms: list the labels in the order you were asked to.
b, d, a, c, e

---

Measured On: full-length MALT1 protein (Strep-MALT1(1-824)-His) (Homo sapiens (Human))
Observed Property: IC50 (nM)

| Compound | Measurement Unit | Experimental Result |
| --- | --- | --- |
| NCc1cnnn1-c1ncc(NC(=O)c2cnn(-c3cccc4ncccc34)c2C(F)(F)F)cc1Cl [Cpd 248] | nM | 331 |

(A) Cc1nc(-n2nccn2)c(Cl)cc1NC(=O)c1cnn(-c2cccn3nccc23)c1C(F)(F)F
(B) O=C(Nc1cnc(-n2nccn2)c(Cl)c1)c1cnn(-c2noc3ccccc23)c1C(F)(F)F [Cpd 284]
(C) O=C(Nc1cnc(-n2nccn2)c(Cl)c1)c1cnn(-c2c[n+]([O-])cc3sccc23)c1C(F)(F)F [Cpd 409]
List the 3 entries from lowest IC50 to highest IC50 value. Please write the labels in the order that was asked for.
A, B, C
(A: 26 nM, B: 120 nM, C: 2290 nM)

---

Test system: IL6 secretion by OCI-LY3 ABC-DLBCL cells
Procedure Text: Human IL6 Mesoscale assay (OCI-LY3)
Type: cell-based
Condition Description: Homo sapiens, 24 h
Observed Property: IC50 (nM)

(1) COc1nccc2c(-n3ncc(C(=O)Nc4cnc(-n5nccn5)c(Cl)c4)c3C(F)(F)F)cccc12 [Cpd 243]
(2) N#Cc1cc(NC(=O)c2cnn(-c3cccc4nc(N)sc34)c2C(F)(F)F)cnc1-n1nccn1 [Cpd 282]
Between 1 and 2 , which one has the lower reported IC50 value? Field: selected label. Fill in the label of the entry you choose.
1

---

Tested on: IL6 secretion by OCI-LY3 ABC-DLBCL cells
Procedure Text: Human IL6 Mesoscale assay (OCI-LY3)
Format: cell-based
Condition Description: Homo sapiens, 24 h
Observed Property: IC50 (nM)

# example entries with known answers
| Molecule | IC50 (nM) |
| --- | --- |
| Cc1nc(-n2nccn2)c(C#N)cc1NC(=O)c1cnn(-c2cccc3scnc23)c1C(F)(F)F [Cpd 297] | 135 |
| O=C(Nc1cnc(-n2nccn2)c(Cl)c1)c1cnn(-c2cnc(C3CCCO3)c3cccc(C4CCCO4)c23)c1C(F)(F)F (stereo not shown) [Cpd 366] | 107 |

(a) O=C(Nc1cnc(-n2nccn2)c(Cl)c1)c1cnn(-c2cc(=O)[nH]c3ccccc23)c1C(F)(F)F [Cpd 418]
(b) O=C(Nc1cnc(-n2nccn2)c(Cl)c1)c1cnn(-c2cccc3nc(C4CCCO4)ccc23)c1C(F)(F)F (stereo not shown) [Cpd 372]
Which of the two gives a bigger number for IC50: a or b ? Record your answer as the label of the chosen record.
a
(a: 95 nM, b: 12 nM)
